- STUDY TARGET: Alpha-1B adrenergic receptor (Homo sapiens, UniProt P35368)
- Sequence (P35368 whole entry): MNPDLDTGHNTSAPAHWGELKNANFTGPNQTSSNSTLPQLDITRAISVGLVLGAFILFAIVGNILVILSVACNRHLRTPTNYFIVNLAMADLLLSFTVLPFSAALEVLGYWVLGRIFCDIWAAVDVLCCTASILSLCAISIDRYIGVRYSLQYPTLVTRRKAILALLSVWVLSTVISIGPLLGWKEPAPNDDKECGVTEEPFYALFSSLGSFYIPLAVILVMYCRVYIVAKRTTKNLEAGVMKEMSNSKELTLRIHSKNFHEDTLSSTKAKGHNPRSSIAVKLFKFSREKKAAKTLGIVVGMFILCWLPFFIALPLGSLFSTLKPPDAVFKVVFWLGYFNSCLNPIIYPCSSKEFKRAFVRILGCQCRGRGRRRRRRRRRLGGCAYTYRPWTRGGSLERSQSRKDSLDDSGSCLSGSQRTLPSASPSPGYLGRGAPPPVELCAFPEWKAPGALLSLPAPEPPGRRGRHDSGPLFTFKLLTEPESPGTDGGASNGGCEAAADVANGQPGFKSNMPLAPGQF
- EXPERIMENTAL DETAILS: Activation of human alpha-1B adrenergic receptors expressed in rat-1 fibroblasts
pEC50: −log10 of the molar value.
pEC50 listing for selected compounds.

compound_string=COc1ccc(S(C)(=O)=O)c(NCC2=NCCN2)c1 study_target="Alpha-1B adrenergic receptor (Homo sapiens, UniProt P35368)" assay_value="< 4.00"

Query: I have this compound here, c1ccc(-c2ccno2)c(OCc2c[nH]cn2)c1 , and I need its recorded pEC50.
Result: < 4.00

Query: Record: CSc1ccccc1NCc1cnc[nH]1
Result: 7.60

Query: Could you do the same for Oc1ccc2cccc(NCc3c[nH]cn3)c2c1 , please?
Result: < 5.30
